- assayed_system: Neuronal acetylcholine receptor subunit alpha-7 (Rattus norvegicus, UniProt Q05941)
- Sequence (Q05941 whole entry): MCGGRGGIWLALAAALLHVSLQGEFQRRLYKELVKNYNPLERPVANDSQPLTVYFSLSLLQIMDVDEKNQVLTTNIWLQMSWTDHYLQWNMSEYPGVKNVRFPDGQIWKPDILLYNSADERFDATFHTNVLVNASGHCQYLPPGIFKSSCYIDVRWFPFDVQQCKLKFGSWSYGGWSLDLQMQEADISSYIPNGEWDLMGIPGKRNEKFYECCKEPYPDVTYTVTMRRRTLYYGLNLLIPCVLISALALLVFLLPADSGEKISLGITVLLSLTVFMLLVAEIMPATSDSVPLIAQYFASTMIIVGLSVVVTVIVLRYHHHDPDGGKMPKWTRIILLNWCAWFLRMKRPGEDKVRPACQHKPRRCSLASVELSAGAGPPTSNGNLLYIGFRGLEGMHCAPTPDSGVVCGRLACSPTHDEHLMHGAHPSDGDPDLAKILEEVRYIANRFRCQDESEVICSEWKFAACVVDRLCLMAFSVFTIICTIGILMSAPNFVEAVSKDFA
- experimental_details: Binding affinity at rat brain Nicotinic acetylcholine receptor alpha7
pKi: −log10 of the molar value.
Please mark TRUE if the recorded pKi is equal to or greater than 6, and FALSE if it falls below.

C1=C(c2cnccn2)C2CC[C@H](CC1)N2 = FALSE
C1=C(c2cccnn2)C2CC[C@H](CC1)N2 = TRUE
C1=C(c2cncnc2)C2CC[C@H](CC1)N2 = FALSE
C1=C(c2cccnc2)C2CC[C@H](CC1)N2 = TRUE
C1=C(c2ccccn2)C2CC[C@H](CC1)N2 = FALSE
Clc1ccc(C2=CCCC3CCC2N3)cn1 (racemic) = FALSE
C1=C(c2ccncc2)C2CC[C@H](CC1)N2 = FALSE
